Molecular target: T1, 14-3-3ζ-strep (human, UniProt P63104 1-245)
T1 chain: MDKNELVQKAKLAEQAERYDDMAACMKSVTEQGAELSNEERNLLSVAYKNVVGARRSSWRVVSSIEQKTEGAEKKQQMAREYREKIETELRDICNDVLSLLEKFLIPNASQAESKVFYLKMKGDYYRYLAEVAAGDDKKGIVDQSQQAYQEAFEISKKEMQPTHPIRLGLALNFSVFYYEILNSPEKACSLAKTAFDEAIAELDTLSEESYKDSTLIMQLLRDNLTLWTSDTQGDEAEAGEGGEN
Test: FP
Where no end group is shown, it is not given here. [ ]: non-standard residue; d: D form. pT = C[C@@H](OP(=O)(O)O)[C@H](N)C(=O)O
TEST READOUT: Kd (µM)
Give bare numbers, in µM.

For AEGRRA[pT]VPWSHPQFEK (also: fluorescein label, position not given here) [ERα(PKA)-strep phosphopeptide (fluorescein-labeled, pT594, with C-terminal strep-tag)] , write its Kd.
14
